MCH: recorded values
Species on record: Rattus norvegicus
Assay: Open TG-GATES - Regimen: Single
Format: toxicity, organism-based, Sprague-Dawley
Design: regimen Single, gender Male, age 6 weeks
Conditions: in vivo, po, 1000 mg/kg, 24 h, tissue Blood, route gavage, dose level High
Note: unit pg is implicit; provide only the numeric part.

Known results for molecules:
# molecule, unit_label, MCH
data = [
    ("CCc1cc(C(N)=S)ccn1 [ETHIONAMIDE]", "pg", 22.2),
    ("C[C@H](CS)C(=O)N1CCC[C@H]1C(=O)O", "pg", 21.7),
]

Value of measured MCH for the entry `O=C(O)c1cc(/N=N/c2ccc(S(=O)(=O)Nc3ccccn3)cc2)ccc1O` : 21.7

Recorded result, `Clc1ccccc1CN1CCc2sccc2C1` , MCH: 21.4

* * *

Examples of compounds with documented CRE follow.
Species on record: Rattus norvegicus
Assay: Open TG-GATES - Regimen: Single
Format: toxicity, organism-based, Sprague-Dawley
Set-up: regimen Single, gender Male, age 6 weeks
Details: in vivo, po, 1000 mg/kg, 3 h, tissue Plasma, route gavage, dose level High
Quick note: give the figure in mg/dL, leave out the unit.

Examples with answers:
# compound, value_type, unit_label, readout_number
records = [
    ("C[C@H](CS)C(=O)N1CCC[C@H]1C(=O)O", "CRE", "mg/dL", 0.5),
    ("Clc1ccccc1CN1CCc2sccc2C1", "CRE", "mg/dL", 0.4),
    ("CCc1cc(C(N)=S)ccn1 [ETHIONAMIDE]", "CRE", "mg/dL", 0.5),
]

Reported CRE for `O=C(O)c1cn(C2CC2)c2cc(N3CCNCC3)c(F)cc2c1=O` was 0.5

Recorded CRE (compound `O=C(O)c1cc(/N=N/c2ccc(S(=O)(=O)Nc3ccccn3)cc2)ccc1O` ): 0.4

* * *

The entries below come with measured Neu values attached.
Species on record: Rattus norvegicus
Test: Open TG-GATES - Regimen: Single
Assay type: toxicity, organism-based, Sprague-Dawley
Set-up: regimen Single, gender Male, age 6 weeks
Conditions: in vivo, po, 1000 mg/kg, 6 h, tissue Blood, route gavage, dose level High
The figure you give is taken to be in %; do not add the unit.

The examples below pair each entry with its known result.
# molecule, unit_label, Neu
data = [
    ("O=C(O)c1cc(/N=N/c2ccc(S(=O)(=O)Nc3ccccn3)cc2)ccc1O [SULFASALAZINE]", "%", 19.2),
    ("O=C(O)c1cn(C2CC2)c2cc(N3CCNCC3)c(F)cc2c1=O [CIPROFLOXACIN]", "%", 13.8),
    ("Clc1ccccc1CN1CCc2sccc2C1 [TICLOPIDINE]", "%", 24.6),
]

Summary for this molecule, CCc1cc(C(N)=S)ccn1 [ETHIONAMIDE] : Neu is 16

The value of Neu measured for the molecule C[C@H](CS)C(=O)N1CCC[C@H]1C(=O)O [CAPTOPRIL] turned out to be 14

* * *

Species: Rattus norvegicus
Experiment: Open TG-GATES - Regimen: Single
Format: toxicity, organism-based, Sprague-Dawley
Parameters: regimen Single, gender Male, age 6 weeks
Conditions: in vivo, po, 100 mg/kg, 24 h, tissue Plasma, route gavage, dose level Low
Define the label as true (1) when TC is strictly less than 80 mg/dL and as false (0) in all remaining cases.

# compound, class_assignment
data = [
    ("Clc1ccccc1CN1CCc2sccc2C1 [TICLOPIDINE]", "true (1)"),
    ("O=C(O)c1cn(C2CC2)c2cc(N3CCNCC3)c(F)cc2c1=O [CIPROFLOXACIN]", "false (0)"),
]

### Prompt Threshold test, TC < 80 mg/dL: CCc1cc(C(N)=S)ccn1 [ETHIONAMIDE]
### Response true (1)

* * *

Organism: Rattus norvegicus
Experiment: Open TG-GATES - Regimen: Single
Assay type: toxicity, organism-based, Sprague-Dawley
Parameters: regimen Single, gender Male, age 6 weeks
Conditions: in vivo, po, 300 mg/kg, 3 h, tissue Blood, route gavage, dose level Middle
value_type: PT (s)
The answer is to be given in s; state only the numeric part.

Example entries and their recorded answers appear below.
# compound, unit_label, PT
data = [
    ("O=C(O)c1cn(C2CC2)c2cc(N3CCNCC3)c(F)cc2c1=O", "s", 12.4),
    ("Clc1ccccc1CN1CCc2sccc2C1", "s", 12.2),
    ("CCc1cc(C(N)=S)ccn1 [ETHIONAMIDE]", "s", 12.5),
    ("O=C(O)c1cc(/N=N/c2ccc(S(=O)(=O)Nc3ccccn3)cc2)ccc1O", "s", 12.9),
]

Please turn your attention to the following entry.
Query `C[C@H](CS)C(=O)N1CCC[C@H]1C(=O)O` yields PT of 11.6

* * *

Recorded Hb by entry
Species on record: Rattus norvegicus
Assay: Open TG-GATES - Regimen: Single
Format: toxicity, organism-based, Sprague-Dawley
Design: regimen Single, gender Male, age 6 weeks
Details: in vivo, po, 0 mg/kg, 6 h, tissue Blood, route gavage, dose level Control
Numbers only; they are read as g/dL.

Record excerpt, results attached:
# compound, value_type, unit_label, readout_number
measured = [
    ("CCc1cc(C(N)=S)ccn1 [ETHIONAMIDE]", "Hb", "g/dL", 14.1),
    ("COc1ccc(Cc2nccc3cc(OC)c(OC)cc23)cc1OC [PAPAVERINE]", "Hb", "g/dL", 13.8),
    ("CC(=O)Oc1ccccc1C(=O)O [ASPIRIN]", "Hb", "g/dL", 13.9),
    ("O=C(O)c1cn(C2CC2)c2cc(N3CCNCC3)c(F)cc2c1=O [CIPROFLOXACIN]", "Hb", "g/dL", 12.6),
    ("Cn1c(=O)c2[nH]cnc2n(C)c1=O.O [THEOPHYLLINE]", "Hb", "g/dL", 13.7),
    ("CN(C)CCC=C1c2ccccc2CCc2ccccc21 [AMITRIPTYLINE]", "Hb", "g/dL", 12.7),
]

Kindly review the next compound as well.
get_value(item= NC(=O)N/N=C/c1ccc([N+](=O)[O-])o1 [NITROFURAZONE] , readout=Hb) returns 12.7

* * *

Species on record: Rattus norvegicus
Experiment: Open TG-GATES - Regimen: Single
Assay type: toxicity, organism-based, Sprague-Dawley
Design: regimen Single, gender Male, age 6 weeks
Conditions: in vivo, po, 300 mg/kg, 24 h, tissue Kidney, route gavage, dose level Middle
This listing pairs compounds with measured KIDNEY_TOTAL.

# compound, KIDNEY_TOTAL
records = [
    ("Clc1ccccc1CN1CCc2sccc2C1", "2 g"),
    ("CCc1cc(C(N)=S)ccn1 [ETHIONAMIDE]", "2.2 g"),
    ("O=C(O)c1cn(C2CC2)c2cc(N3CCNCC3)c(F)cc2c1=O", "1.8 g"),
    ("O=C(O)c1cc(/N=N/c2ccc(S(=O)(=O)Nc3ccccn3)cc2)ccc1O", "1.9 g"),
]

--- query ---
Summary for this compound, `C[C@H](CS)C(=O)N1CCC[C@H]1C(=O)O` : KIDNEY_TOTAL is 2.1 g

* * *

# PT per entry
Species on record: Rattus norvegicus
Test: Open TG-GATES - Regimen: Single
Format: toxicity, organism-based, Sprague-Dawley
Set-up: regimen Single, gender Male, age 6 weeks
Conditions: in vivo, po, 0 mg/kg, 6 h, tissue Blood, route gavage, dose level Control
Give the number; s is assumed, so skip it.

The examples below pair each entry with its known result.
# compound, PT / s
rows = [
    ("O=C(O)c1cn(C2CC2)c2cc(N3CCNCC3)c(F)cc2c1=O [CIPROFLOXACIN]", 12.5),
    ("O=C(O)c1cc(/N=N/c2ccc(S(=O)(=O)Nc3ccccn3)cc2)ccc1O [SULFASALAZINE]", 12.9),
    ("CSc1ccc2c(c1)N(CCC1CCCCN1C)c1ccccc1S2 (stereo not given) [THIORIDAZINE]", 12.1),
    ("COc1ccc(Cc2nccc3cc(OC)c(OC)cc23)cc1OC [PAPAVERINE]", 15.9),
]

Now look at this entry.
So for CCc1cc(C(N)=S)ccn1 [ETHIONAMIDE] , the logged PT turned out to be 12.1

* * *

Organism: Rattus norvegicus
Experiment: Open TG-GATES - Regimen: Single
Format: toxicity, organism-based, Sprague-Dawley
Set-up: regimen Single, gender Male, age 6 weeks
Details: in vivo, po, 1000 mg/kg, 9 h, tissue Plasma, route gavage, dose level High
The following compounds are shown together with reported TBIL values.
Express your answer as a number followed by its unit.

Known results for compounds:
# compound, TBIL
measured = [
    ("CCc1cc(C(N)=S)ccn1 [ETHIONAMIDE]", "0.4 mg/dL"),
    ("Clc1ccccc1CN1CCc2sccc2C1", "0.1 mg/dL"),
    ("O=C(O)c1cn(C2CC2)c2cc(N3CCNCC3)c(F)cc2c1=O", "0.3 mg/dL"),
    ("C[C@H](CS)C(=O)N1CCC[C@H]1C(=O)O", "0.5 mg/dL"),
]

Pending compound:
So, `O=C(O)c1cc(/N=N/c2ccc(S(=O)(=O)Nc3ccccn3)cc2)ccc1O` ? Its TBIL was 0.1 mg/dL
